# EXPERIMENTAL SYSTEM: Thermothelomyces thermophilus SAM complex (sorting and assembly machinery complex; Sam50:Sam35:Sam37, monomer) (Thermothelomyces thermophilus)
# Sequence (chain, as listed by the source, chain 1 of 3): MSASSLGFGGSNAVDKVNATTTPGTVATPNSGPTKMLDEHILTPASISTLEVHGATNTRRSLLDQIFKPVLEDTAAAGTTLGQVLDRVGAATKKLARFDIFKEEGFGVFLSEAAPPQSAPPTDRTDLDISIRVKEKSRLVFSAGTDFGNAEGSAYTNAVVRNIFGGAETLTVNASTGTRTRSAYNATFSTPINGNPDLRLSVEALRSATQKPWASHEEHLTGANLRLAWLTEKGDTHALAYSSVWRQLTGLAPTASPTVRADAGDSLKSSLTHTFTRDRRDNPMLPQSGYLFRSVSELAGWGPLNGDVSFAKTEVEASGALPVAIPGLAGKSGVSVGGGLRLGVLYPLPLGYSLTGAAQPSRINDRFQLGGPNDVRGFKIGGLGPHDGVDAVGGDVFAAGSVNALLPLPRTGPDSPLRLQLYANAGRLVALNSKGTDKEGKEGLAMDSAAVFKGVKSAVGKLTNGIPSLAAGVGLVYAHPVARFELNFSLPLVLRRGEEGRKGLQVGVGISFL
# Sequence (chain, as listed by the source, chain 2 of 3): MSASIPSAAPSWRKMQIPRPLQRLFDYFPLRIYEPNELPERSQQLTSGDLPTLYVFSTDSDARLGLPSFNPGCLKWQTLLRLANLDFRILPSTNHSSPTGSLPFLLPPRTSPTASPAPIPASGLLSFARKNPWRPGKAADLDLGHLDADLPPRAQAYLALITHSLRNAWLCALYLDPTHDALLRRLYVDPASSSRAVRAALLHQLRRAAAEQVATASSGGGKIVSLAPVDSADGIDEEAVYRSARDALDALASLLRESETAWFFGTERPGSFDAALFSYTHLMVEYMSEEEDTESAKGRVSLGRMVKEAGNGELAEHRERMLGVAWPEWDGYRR
# Sequence (chain, as listed by the source, chain 3 of 3): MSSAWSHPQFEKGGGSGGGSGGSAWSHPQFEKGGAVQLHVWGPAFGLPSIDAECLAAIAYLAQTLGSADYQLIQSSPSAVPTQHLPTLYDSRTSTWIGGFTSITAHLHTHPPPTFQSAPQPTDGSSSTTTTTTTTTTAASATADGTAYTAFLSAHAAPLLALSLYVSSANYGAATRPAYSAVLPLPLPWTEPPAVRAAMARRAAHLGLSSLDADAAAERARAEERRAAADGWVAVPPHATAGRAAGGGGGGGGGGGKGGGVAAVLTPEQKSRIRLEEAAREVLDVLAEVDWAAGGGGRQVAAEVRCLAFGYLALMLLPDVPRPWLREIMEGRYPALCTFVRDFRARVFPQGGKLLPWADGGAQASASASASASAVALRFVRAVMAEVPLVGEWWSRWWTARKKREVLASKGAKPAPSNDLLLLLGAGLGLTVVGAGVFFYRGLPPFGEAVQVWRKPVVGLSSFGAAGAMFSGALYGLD
# PROTOCOL NOTES: MST; replicate 3; detergent
PROPERTY: Kd (µM)
Number only, in µM; omit the unit.

## Task Entry WNWSKSF [linear darobactin] has what Kd?
## Result 491
